Measured EC50, listed per entry for reference.
test system: Pseudotyped HCV GT1b particles (HCVpp), entry into Huh7-high CD81 cells; assay: microbe, parasite or virus in culture; assay type: cell-based, HCV GT1b Con1 strain; conditions: Hepatitis C virus, GT1B, 72 h, read-out: HCVpp GT-1b (EC50, μM)
Structures can show the parent of a compound that is named as a salt.
assay-endpoint: EC50 (µM)

* Nc1nc(Nc2cc(Cl)c(-c3ccc(S(=O)(=O)N4CCNCC4)cc3)c(C(F)(F)F)c2)n[nH]1 [Compound 33] | 0.099
* COc1ccc(-c2c(Cl)cc(Nc3n[nH]c(N)n3)cc2C(F)(F)F)cc1S(=O)(=O)NCCO [Compound 175] | 0.018
* CC(C)(C)CCN1CCC(S(=O)(=O)c2ccc(-c3c(Cl)cc(Nc4n[nH]c(N)n4)cc3C(F)(F)F)cc2)CC1 [Compound 5, hydrochloride] | 0.005
* Cc1ccc(-c2c(Cl)cc(Nc3n[nH]c(N)n3)cc2Cl)cc1 [Compound 97] | 0.704
